Target: BACE1 (Homo sapiens, UniProt P56817)
Construct: recombinant BACE1 protein in a final concentration of 1 μg/ml
Sequence (P56817 46-501): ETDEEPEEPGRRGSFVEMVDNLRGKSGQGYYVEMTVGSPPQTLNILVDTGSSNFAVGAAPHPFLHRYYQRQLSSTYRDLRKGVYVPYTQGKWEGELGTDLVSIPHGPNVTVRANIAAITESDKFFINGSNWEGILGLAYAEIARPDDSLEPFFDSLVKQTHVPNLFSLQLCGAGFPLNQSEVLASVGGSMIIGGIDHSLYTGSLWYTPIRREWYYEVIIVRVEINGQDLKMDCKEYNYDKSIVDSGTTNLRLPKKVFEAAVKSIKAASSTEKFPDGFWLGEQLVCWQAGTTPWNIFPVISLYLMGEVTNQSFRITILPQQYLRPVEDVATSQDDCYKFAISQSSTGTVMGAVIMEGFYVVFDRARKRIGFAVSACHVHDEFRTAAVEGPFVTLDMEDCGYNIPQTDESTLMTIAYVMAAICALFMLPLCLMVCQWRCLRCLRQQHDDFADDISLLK
Assay: BACE1 biochemical FRET based assay
Conditions: Method 1: recombinant BACE1 1 μg/ml, 120 min at room temperature, pH 5.0
Attribute: Biochemical FRET based assay pIC50
Provide a numeric answer; units are not to be included.

The examples below pair each entry with its known result.
COMPOUND: C[C@]1(C#N)C[C@H]2[C@H](C(F)(F)F)OC[C@@]2(c2cc(NC(=O)c3ccc(C#N)cn3)ccc2F)N=C1N
Biochemical FRET based assay pIC50: 5.02

COMPOUND: C[C@@]1(C#N)C[C@@H]2[C@@H](C(F)(F)F)OC[C@]2(c2cc(NC(=O)c3ccc(C#N)cn3)ccc2F)N=C1N
Biochemical FRET based assay pIC50: 9.06

# Biochemical FRET based assay pIC50 lookup, item C[C@@H]1OC[C@@]2(c3cc(NC(=O)c4ccc(C#N)cn4)ccc3F)N=C(N)[C@@](C)(C#N)C[C@@H]12
6.28

Cool, now COc1cnc(C(=O)Nc2ccc(F)c([C@]34CO[C@H](C)[C@H]3C[C@](C)(C#N)C(N)=N4)c2)cn1
7.06

One more compound: C[C@@H]1OC[C@@]2(c3cc(NC(=O)c4cnc(OCF)cn4)ccc3F)N=C(N)[C@@](C)(C#N)C[C@@H]12 (single isomer, unassigned)
5.76

Likewise for C[C@@H]1OC[C@@]2(c3cc(NC(=O)c4ccc(C#N)cn4)ccc3F)N=C(N)[C@](C)(C#N)C[C@@H]12 ?
5.12

###

Target: BACE1 (Homo sapiens, UniProt P56817)
Construct: recombinant BACE1 protein in a final concentration of 1 μg/ml
Experiment: BACE1 biochemical FRET based assay
Settings: Method 1: recombinant BACE1 1 μg/ml, 120 min at room temperature, pH 5.0
METRIC_NAME: Biochemical FRET based assay pIC50

These solved cases illustrate the format of a correct answer.
MOLECULE: C[C@@]1(C#N)C[C@@H]2[C@@H](C(F)(F)F)OC[C@]2(c2cc(NC(=O)c3ccc(F)cn3)ccc2F)N=C1N
Biochemical FRET based assay pIC50: 8.73
--
MOLECULE: C[C@]1(C#N)C[C@H]2[C@H](C(F)(F)F)OC[C@@]2(c2cc(NC(=O)c3ccc(F)cn3)ccc2F)N=C1N
Biochemical FRET based assay pIC50: 5
--
MOLECULE: C[C@@]1(C#N)C[C@H]2[C@H](C(F)(F)F)OC[C@@]2(c2cc(NC(=O)c3ccc(F)cn3)ccc2F)N=C1N
Biochemical FRET based assay pIC50: <5
--
MOLECULE: N#Cc1ccc(C(=O)Nc2ccc(F)c([C@]34CO[C@H](C(F)(F)F)[C@H]3CCC(N)=N4)c2)nc1 [11a]
Biochemical FRET based assay pIC50: 8.53
--
MOLECULE: C[C@H]1OC[C@]2(c3cc(NC(=O)c4ccc(F)cn4)ccc3F)N=C(N)[C@](C)(C#N)C[C@H]12 (single isomer, unassigned) [10b]
Biochemical FRET based assay pIC50: 8.25

Request the reported Biochemical FRET based assay pIC50 associated with Cl.NC1=N[C@]2(c3cc(NC(=O)c4ccc(F)cn4)ccc3F)CO[C@@H](C(F)(F)F)[C@@H]2CC1 [12b]
5.27

C[C@@]1(C#N)C[C@H]2[C@H](C(F)(F)F)OC[C@@]2(c2cc(NC(=O)c3ccc(C#N)cn3)ccc2F)N=C1N ?
5.84

###

Biological target: BACE1 (Homo sapiens, UniProt P56817)
Construct: recombinant BACE1 protein in a final concentration of 1 μg/ml
Test: BACE1 biochemical FRET based assay
Conditions: Method 1: recombinant BACE1 1 μg/ml, 120 min at room temperature, pH 5.0; read-out: Biochemical FRET based assay pIC50 (converted)
Measured IC50 values are reported for all entries that follow.
Express your answer in nM, writing the number without its unit.

COMPOUND: CC1OCC2(c3cc(NC(=O)c4cnc(-n5cncn5)cn4)cc(F)c3F)N=C(N)C(C)(C#N)CC12 (single isomer, unassigned) [32a]
MEASUREMENT_TARGET: BACE1 (Homo sapiens, UniProt P56817)
METRIC_NAME: IC50
VALUE_REPORTED: 19.1

COMPOUND: CC1OCC2(c3cc(NC(=O)c4ccc(C#N)cn4)cc(F)c3F)N=C(N)C(C)(C#N)CC12 (single isomer, unassigned) [33d]
MEASUREMENT_TARGET: BACE1 (Homo sapiens, UniProt P56817)
METRIC_NAME: IC50
VALUE_REPORTED: 708

What value of IC50 has been recorded for this entry: CC1OCC2(c3cc(NC(=O)c4cnc(-n5cncn5)cn4)ccc3F)N=C(N)C(C)(C#N)CC12 (single isomer, unassigned) [15b]
1550

###

Biological target: BACE2 (Homo sapiens)
Construct: recombinant BACE2 protein in a final concentration of 0.4 μg/ml
Assay: BACE2 biochemical FRET based assay
Conditions: recombinant BACE2, 450 minutes at room temperature, pH 5.0; read-out: Biochemical FRET based assay pIC50 (converted)
METRIC_NAME: IC50 (µM)
Enter your answer as a number in µM; do not include the unit.

The examples below pair each entry with its known result.
COMPOUND: CC1OCC2(c3cc(NC(=O)c4ccc(C#N)cn4)cc(F)c3F)N=C(N)C(C)(C#N)CC12 (single isomer, unassigned) [33b]
UNIT_ANNOTATION: µM
IC50: 0.0447

COMPOUND: CC(F)(F)[C@H]1OC[C@]2(c3cc(NC(=O)c4ccc(C#N)cn4)ccc3F)N=C(N)[C@](C)(C#N)C[C@H]12 [17a]
UNIT_ANNOTATION: µM
IC50: 0.0214

COMPOUND: CC1OCC2(c3cc(NC(=O)c4cnc(-n5cncn5)cn4)ccc3F)N=C(N)C(C)(C#N)CC12 (single isomer, unassigned) [15a]
UNIT_ANNOTATION: µM
IC50: 0.158

GET /values?readout=IC50&item= CC1OCC2(c3cc(NC(=O)c4ccc(OC(F)F)cn4)ccc3F)N=C(N)C(C)(C#N)CC12 (single isomer, unassigned) [35a]
0.0832

Could you do the same for CC1OCC2(c3cc(NC(=O)c4cnc(-n5cncn5)cn4)cc(F)c3F)N=C(N)C(C)(C#N)CC12 (single isomer, unassigned) [32b] , please?
9.55

###

Target: BACE1 (Homo sapiens, UniProt P56817)
Construct: recombinant BACE1 protein in a final concentration of 1 μg/ml
Test: BACE1 biochemical FRET based assay
Conditions: Method 1: recombinant BACE1 1 μg/ml, 120 min at room temperature, pH 5.0; read-out: Biochemical FRET based assay pIC50 (converted)
METRIC_NAME: IC50 (nM)
Give your result in nM as a bare value.

Need IC50, item CC1OCC2(c3cc(NC(=O)c4ccc(OC(F)F)cn4)ccc3F)N=C(N)C(C)(C#N)CC12 (single isomer, unassigned) [35a]
5.62

Then what about the molecule CC(F)(F)[C@H]1OC[C@]2(c3cc(NC(=O)c4cnc(-n5cncn5)cn4)ccc3F)N=C(N)[C@](C)(C#N)C[C@H]12 [16a] ?
4.9

###

Below is a list of entries, each paired with its recorded IC50 value.
Target: BACE2 (Homo sapiens, UniProt Q9Y5Z0)
Construct: recombinant BACE2 protein in a final concentration of 0.4 μg/ml
Sequence (Q9Y5Z0 63-518): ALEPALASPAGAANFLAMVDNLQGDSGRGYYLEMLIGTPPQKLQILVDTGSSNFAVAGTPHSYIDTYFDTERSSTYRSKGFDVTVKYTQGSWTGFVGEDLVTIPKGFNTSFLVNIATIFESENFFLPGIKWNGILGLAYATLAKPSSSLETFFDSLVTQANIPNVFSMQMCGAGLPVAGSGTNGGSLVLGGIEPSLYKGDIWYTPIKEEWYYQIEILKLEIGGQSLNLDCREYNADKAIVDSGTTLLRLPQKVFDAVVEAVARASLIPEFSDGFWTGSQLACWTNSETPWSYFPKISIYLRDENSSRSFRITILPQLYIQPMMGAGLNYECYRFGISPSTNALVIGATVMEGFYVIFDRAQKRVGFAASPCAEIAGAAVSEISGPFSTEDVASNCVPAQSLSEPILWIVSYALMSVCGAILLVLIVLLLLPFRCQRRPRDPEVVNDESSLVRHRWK
Experiment: BACE2 biochemical FRET based assay
Settings: recombinant BACE2, 450 minutes at room temperature, pH 5.0; read-out: Biochemical FRET based assay pIC50 (converted)
Please give a number only; it is taken to be in nM.

Consider the worked cases shown below.
COMPOUND: CC(F)(F)[C@H]1OC[C@]2(c3cc(NC(=O)c4cnc(OCF)cn4)ccc3F)N=C(N)[C@](C)(C#N)C[C@H]12 [compound 14]
VALUE_REPORTED: 81.3

COMPOUND: C[C@@]1(C#N)C[C@@H]2[C@@H](C(F)F)OC[C@]2(c2cc(NC(=O)c3cnc(-n4cncn4)cn3)ccc2F)N=C1N [26a]
VALUE_REPORTED: 105

COMPOUND: C[C@@]1(C#N)C[C@@H]2[C@@H](CF)OC[C@]2(c2cc(NC(=O)c3cnc(OCF)cn3)ccc2F)N=C1N [22a]
VALUE_REPORTED: 74.1

Then this compound:
Any idea what its IC50 is? The compound is CC1(C#N)CC2C(C(F)F)OCC2(c2cc(NC(=O)c3cnc(OCF)cn3)ccc2F)N=C1N (single isomer, unassigned) [25b]
891

###

Target: BACE2 (Homo sapiens, UniProt Q9Y5Z0)
Construct: recombinant BACE2 protein in a final concentration of 0.4 μg/ml
Assay: BACE2 biochemical FRET based assay
Details: recombinant BACE2, 450 minutes at room temperature, pH 5.0; read-out: Biochemical FRET based assay pIC50 (converted)
METRIC_NAME: IC50 (nM)
Respond with the bare value in nM.

Consider the following illustrative entries.
COMPOUND: CC(F)(F)[C@H]1OC[C@]2(c3cc(NC(=O)c4cnc(-n5cncn5)cn4)ccc3F)N=C(N)[C@](C)(C#N)C[C@H]12 [16a]
UNIT_ANNOTATION: nM
VALUE_REPORTED: 363

COMPOUND: CC1OCC2(c3cc(NC(=O)c4cnc(OCF)cn4)cc(F)c3F)N=C(N)C(C)(C#N)CC12 (single isomer, unassigned) [31c]
UNIT_ANNOTATION: nM
VALUE_REPORTED: 158

Item CC1OCC2(c3cc(NC(=O)c4cnc(-n5cncn5)cn4)cc(F)c3F)N=C(N)C(C)(C#N)CC12 (single isomer, unassigned) [32a] has what recorded IC50?
347

The reported numbers originate from patent US20200062773A1.
